# TEST_SYSTEM: Human recombinant PDE3A (hPDE3A) (Homo sapiens)
# Construct: purchased Scottish Biomedical; host or cells: Sf9 insect cells
# Sequence (Q14432 whole entry): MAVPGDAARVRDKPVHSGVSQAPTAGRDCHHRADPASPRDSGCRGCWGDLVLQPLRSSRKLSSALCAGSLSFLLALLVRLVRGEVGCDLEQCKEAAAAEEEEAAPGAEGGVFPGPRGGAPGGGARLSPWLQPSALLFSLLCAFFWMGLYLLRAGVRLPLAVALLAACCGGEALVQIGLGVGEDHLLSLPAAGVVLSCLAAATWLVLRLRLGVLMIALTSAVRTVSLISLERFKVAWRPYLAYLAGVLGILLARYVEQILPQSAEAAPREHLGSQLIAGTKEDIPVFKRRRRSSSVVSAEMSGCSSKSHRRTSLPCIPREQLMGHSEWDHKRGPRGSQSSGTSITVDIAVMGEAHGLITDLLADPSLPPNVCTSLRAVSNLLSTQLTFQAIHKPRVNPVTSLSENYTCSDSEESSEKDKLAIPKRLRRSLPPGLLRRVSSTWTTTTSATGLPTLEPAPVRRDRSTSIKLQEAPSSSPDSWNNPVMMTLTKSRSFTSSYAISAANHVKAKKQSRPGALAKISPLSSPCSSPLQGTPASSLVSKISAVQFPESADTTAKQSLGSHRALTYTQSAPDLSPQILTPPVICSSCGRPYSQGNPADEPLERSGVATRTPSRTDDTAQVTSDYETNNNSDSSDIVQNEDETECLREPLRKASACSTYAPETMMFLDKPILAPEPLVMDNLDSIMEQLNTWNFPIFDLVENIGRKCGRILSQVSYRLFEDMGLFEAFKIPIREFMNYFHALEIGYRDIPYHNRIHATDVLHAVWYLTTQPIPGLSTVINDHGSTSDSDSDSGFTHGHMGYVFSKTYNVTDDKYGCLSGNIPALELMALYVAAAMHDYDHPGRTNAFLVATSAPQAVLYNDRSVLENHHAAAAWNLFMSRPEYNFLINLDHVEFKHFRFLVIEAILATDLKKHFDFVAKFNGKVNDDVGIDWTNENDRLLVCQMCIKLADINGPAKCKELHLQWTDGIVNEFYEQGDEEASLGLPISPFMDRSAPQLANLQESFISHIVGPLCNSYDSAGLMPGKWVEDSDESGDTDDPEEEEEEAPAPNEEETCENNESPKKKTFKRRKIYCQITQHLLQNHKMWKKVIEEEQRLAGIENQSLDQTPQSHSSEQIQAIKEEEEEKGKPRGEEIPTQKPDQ
# ASSAY_REMARKS: In vitro assay PDE3A (SPA, 3H-cAMP hydrolysis);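 also: the method names PDE3A and the table heading PDE3B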
# Type: biochemical
# CONDITION_PARAMETERS: hPDE3B pIC50; read-out: pIC50 (converted)
OBSERVED_PROPERTY: IC50

Prompt: Fill in reported IC50 for this entry: CC(C)(C)c1ccc(C(=O)N2[C@H]3CC[C@H](c4cc(C(F)F)nc5ncnn45)[C@@H]2CC3)o1
Response: 4.47 µM

Prompt: Fill in reported IC50 for this entry: C[C@@H]1CCN(C(=O)c2ccn(C)n2)C[C@H]1c1cc(C(F)F)nc2ncnn12
Response: > 10 µM

Prompt: Fill in reported IC50 for this entry: C[C@@H]1CCN(C(=O)c2ncc(C#N)cc2Cl)C[C@H]1c1cc(C(F)F)nc2ncnn12
Response: > 10 µM

Prompt: Fill in reported IC50 for this entry: Cc1cc(C(=O)N2CC[C@@H](C)[C@H](c3cc(C)nc4ncnn34)C2)cc(OC(F)F)n1
Response: 0.977 µM

Prompt: Fill in reported IC50 for this entry: C[C@@H]1CCN(C(=O)c2cnn(C)c2)C[C@H]1c1cc(C(F)F)nc2ncnn12
Response: > 10 µM

Prompt: Fill in reported IC50 for this entry: Cc1cnc(C(F)(F)F)cc1C(=O)N1CC[C@@H](C)[C@H](c2cc(C(F)F)nc3ncnn23)C1
Response: > 10 µM

Prompt: Fill in reported IC50 for this entry: C[C@@H]1CCN(C(=O)c2ccc(N)nc2)C[C@H]1c1cc(C(F)F)nc2ncnn12
Response: > 10 µM

###

# TEST_SYSTEM: Human recombinant PDE10A (hPDE10A) (Homo sapiens, UniProt Q9Y233)
# Construct: His tag (inferred from metal chelate purification); made in house; host or cells: Sf9 insect cells (baculovirus)
# Sequence (Q9Y233 267-1055): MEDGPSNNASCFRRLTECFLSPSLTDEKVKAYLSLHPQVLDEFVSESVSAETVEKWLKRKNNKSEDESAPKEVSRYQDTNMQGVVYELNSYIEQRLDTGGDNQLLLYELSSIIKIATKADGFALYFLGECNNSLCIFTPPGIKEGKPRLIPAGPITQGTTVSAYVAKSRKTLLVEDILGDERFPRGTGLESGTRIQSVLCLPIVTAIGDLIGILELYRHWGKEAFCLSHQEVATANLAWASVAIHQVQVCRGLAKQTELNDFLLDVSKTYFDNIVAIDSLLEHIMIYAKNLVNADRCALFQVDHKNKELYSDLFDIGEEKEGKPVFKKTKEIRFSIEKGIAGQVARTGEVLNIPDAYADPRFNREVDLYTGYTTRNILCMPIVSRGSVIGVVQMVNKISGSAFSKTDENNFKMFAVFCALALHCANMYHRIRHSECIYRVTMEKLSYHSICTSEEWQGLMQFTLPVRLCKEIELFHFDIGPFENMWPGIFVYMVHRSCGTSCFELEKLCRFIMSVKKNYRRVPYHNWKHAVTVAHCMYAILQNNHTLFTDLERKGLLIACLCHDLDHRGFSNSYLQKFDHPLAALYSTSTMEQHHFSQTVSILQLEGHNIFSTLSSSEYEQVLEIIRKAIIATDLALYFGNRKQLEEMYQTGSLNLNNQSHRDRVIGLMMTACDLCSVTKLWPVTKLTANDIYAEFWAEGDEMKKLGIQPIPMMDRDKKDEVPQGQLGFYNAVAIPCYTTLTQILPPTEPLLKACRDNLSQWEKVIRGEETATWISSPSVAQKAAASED
# ASSAY_REMARKS: In vitro assay PDE10A, human clone (SPA, 3H-cAMP hydrolysis)
# Assay type: biochemical
# CONDITION_PARAMETERS: human clone by default (no (r) mark); read-out: hPDE10A2 or rPDE10A2 Emax
I'd be grateful if you could share measured Emax for these entries.
The figure you give is taken to be in %; do not add the unit.

Prompt: Fill in reported Emax for this entry: Cc1cc(C(=O)N2CC[C@@H](C)[C@H](c3cc(C(F)F)nc4ncnn34)C2)c(F)c(C(F)(F)F)n1
Response: 84

Prompt: Fill in reported Emax for this entry: C[C@@H]1CCN(C(=O)c2ccncc2C(F)(F)F)C[C@H]1c1cc(C(F)F)nc2ncnn12
Response: 43

Prompt: Fill in reported Emax for this entry: C[C@@H]1CCN(C(=O)c2ccc(F)c(F)c2F)C[C@H]1c1cc(C(F)F)nc2ncnn12
Response: 79

Prompt: Fill in reported Emax for this entry: O=C(c1ccc(F)c(C(F)(F)F)c1)N1[C@H]2CC[C@H](c3cc(C(F)F)nc4ncnn34)[C@@H]1CC2
Response: 73

Prompt: Fill in reported Emax for this entry: C[C@@H]1CCN(C(=O)c2ccc3cnccc3c2)C[C@H]1c1cc(C(F)F)nc2ncnn12
Response: 99

Prompt: Fill in reported Emax for this entry: C[C@@H]1CCN(C(=O)c2cnc(CF)cn2)C[C@H]1c1cc(C(F)F)nc2ncnn12
Response: 58

Prompt: Fill in reported Emax for this entry: Cc1cc(C(=O)N2[C@H]3CC[C@@H]2[C@H](c2cc(C(F)F)nc4ncnn24)CC3)cc(C2CC2)n1
Response: 63

Prompt: Fill in reported Emax for this entry: O=C(c1cccc2ccccc12)N1[C@H]2CC[C@H](c3cc(C(F)F)nc4ncnn34)[C@@H]1CC2
Response: 62

Prompt: Fill in reported Emax for this entry: C[C@@H]1CCN(C(=O)c2ccc(O)c(C#N)c2)C[C@H]1c1cc(C(F)F)nc2ncnn12
Response: 100

Prompt: Fill in reported Emax for this entry: C[C@@H]1CCN(C(=O)c2ccc3ncccc3c2)C[C@H]1c1cc(C(F)F)nc2ncnn12
Response: 99

Prompt: Fill in reported Emax for this entry: COc1cc(C(=O)N2[C@H]3CC[C@H](c4cc(C(F)F)nc5ncnn45)[C@@H]2CC3)cc(C)n1
Response: 89

Prompt: Fill in reported Emax for this entry: Cc1nc(C2CC2)cc(C(=O)N2CC[C@@H](C)[C@H](c3cc(C(F)F)nc4ncnn34)C2)c1F
Response: 96

Prompt: Fill in reported Emax for this entry: CN1CCOc2cc(C(=O)N3[C@H]4CC[C@H](c5cc(C(F)F)nc6ncnn56)[C@@H]3CC4)ccc21
Response: 97

Prompt: Fill in reported Emax for this entry: Cc1cc([C@@H]2CN(C(=O)c3cc(C4CC4)ncc3F)CC[C@H]2C)n2ncnc2n1
Response: 99

Prompt: Fill in reported Emax for this entry: C[C@@H]1CCN(C(=O)c2ccc(F)cn2)C[C@H]1c1cc(C(F)F)nc2ncnn12
Response: 53

Hey, just so you know, these numbers are from patent US10947242B2.
